biological target: Fc-fusion protein of human PSMA (hPSMA-Fc) (Homo sapiens, UniProt Q04609); construct: purchased Acro Biosystems PSA-H5264; experiment: Surface plasmon resonance assay (Biacore T200, single cycle kinetic); format: binding; details: PSMA SPR assay, hPSMA-Fc, 25° C.; pKD category; read-out: pKD CAT (converted)
Sequence (Q04609 44-750 limits assumed): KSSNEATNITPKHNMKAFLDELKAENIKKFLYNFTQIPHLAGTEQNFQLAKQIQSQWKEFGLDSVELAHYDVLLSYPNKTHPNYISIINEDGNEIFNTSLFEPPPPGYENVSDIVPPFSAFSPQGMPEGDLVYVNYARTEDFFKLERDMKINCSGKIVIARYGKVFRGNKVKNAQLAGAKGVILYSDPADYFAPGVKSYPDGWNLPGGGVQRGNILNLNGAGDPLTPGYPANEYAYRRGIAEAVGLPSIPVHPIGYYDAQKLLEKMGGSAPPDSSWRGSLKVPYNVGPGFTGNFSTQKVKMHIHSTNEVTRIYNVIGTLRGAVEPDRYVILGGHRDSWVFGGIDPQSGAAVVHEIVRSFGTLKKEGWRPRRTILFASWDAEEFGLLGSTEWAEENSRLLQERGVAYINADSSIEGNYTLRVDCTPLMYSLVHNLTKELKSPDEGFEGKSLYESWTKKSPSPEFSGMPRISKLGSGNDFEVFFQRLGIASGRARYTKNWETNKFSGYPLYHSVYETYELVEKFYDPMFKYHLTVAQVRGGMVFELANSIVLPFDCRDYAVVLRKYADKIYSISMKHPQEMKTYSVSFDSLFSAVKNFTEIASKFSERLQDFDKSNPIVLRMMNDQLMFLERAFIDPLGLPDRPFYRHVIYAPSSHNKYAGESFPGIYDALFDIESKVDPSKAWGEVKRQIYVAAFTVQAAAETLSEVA
Numbered stars: 1 amine (or outer) side, 2 acyl side, 3 side chain; on linkers, the order of the positions; unused ones are H or OH. Bridge positions count the residues as written; N and C are the ends. Square brackets hold non-standard residues; d marks the D form. Peptide text beside a SMILES is read from it. * marks the point of attachment. TtdsdLys(DOTA)NH2 = NC(=O)[C@@H](CCCCNC(=O)CN1CCN(CC(=O)O)CCN(CC(=O)O)CCN(CC(=O)O)CC1)NC(=O)CCC(=O)NCCCOCCOCCOCCCN*; DOTA = O=C(O)CN1CCN(CC(=O)O)CCN(CC(=O)*)CCN(CC(=O)O)CC1; Ala(quinolin-3-yl) = N[C@@H](Cc1cnc2ccccc2c1)C(=O)O; Phe(4-Cl) = N[C@@H](Cc1ccc(Cl)cc1)C(=O)O; Ethylenediamine = C(CN[*:2])N[*:1]; X1 = O=C(CC1CCN([*:1])CC1)[*:2]; Cit = NC(=O)NCCC[C@H](N)C(=O)O; Tle = CC(C)(C)[C@H](N)C(=O)O; 4Amb = NCc1ccc(C(=O)O)cc1; Isovaleryl = CC(C)CC(=O)*; Aib = CC(C)(N)C(=O)O; GABA = NCCCC(=O)O
property name: Kd

Before answering, review these 8 worked examples.
compound: CC(=O)N[C@H](C(=O)NC(C)(C)C(=O)N[C@@H](Cc1ccccc1)C(=O)N[C@H]1CSSC[C@@H](C(=O)N[C@H](C(=O)N[C@H](C(=O)N[C@@H](CC(=O)O)C(N)=O)[C@@H](C)O)C(C)(C)C)NC(=O)[C@H](CC(N)=O)NC(=O)[C@H](C)NC(=O)[C@H](CCCNC(=N)N)NC(=O)[C@H](CCC(=O)O)NC1=O)[C@@H](C)O [PSM-0291] (Ac-T[Aib]FCERANC[Tle]TD-NH2; disulfide 4-9)
Kd: > 0.501 µM

compound: CC(=O)N[C@H](C(=O)NC(C)(C)C(=O)N[C@@H](Cc1ccccc1)C(=O)N[C@H]1CSSC[C@@H](C(=O)N[C@H](C(=O)N[C@H](C(=O)NCCCOCCOCCOCCCNC(=O)CCC(=O)N[C@H](CCCCNC(=O)CN2CCN(CC(=O)O)CCN(CC(=O)O)CCN(CC(=O)O)CC2)C(N)=O)[C@@H](C)O)C(C)(C)C)NC(=O)[C@H](CC(N)=O)NC(=O)C(C)(C)NC(=O)[C@H](CCCNC(=N)N)NC(=O)[C@H](CCCCN)NC1=O)[C@@H](C)O [PSM-0285] (Ac-T[Aib]FCKR[Aib]NC[Tle]T-{TtdsdLys(DOTA)NH2}; disulfide 4-9)
Kd: < 0.0126 µM

compound: C[C@@H](O)[C@H](NC(=O)[C@@H](NC(=O)[C@@H]1CSSC[C@H](NC(=O)[C@H](Cc2cnc3ccccc3c2)NC(=O)C(C)(C)NC(=O)[C@@H](NC(=O)CC2CCN(C(=O)CN3CCN(CC(=O)O)CCN(CC(=O)O)CCN(CC(=O)O)CC3)CC2)[C@@H](C)O)C(=O)N[C@@H](CCCCN)C(=O)N[C@@H](CCCNC(N)=O)C(=O)NC(C)(C)C(=O)N[C@@H](CC(N)=O)C(=O)N1)C(C)(C)C)C(N)=O [PSM-0333] ({DOTA}-[X1]T[Aib][Ala(quinolin-3-yl)]CK[Cit][Aib]NC[Tle]T-NH2; disulfide 5-10)
Kd: > 0.501 µM

compound: CC(C)(NC(=O)c1ccc(CNC(=O)CN2CCN(CC(=O)O)CCN(CC(=O)O)CCN(CC(=O)O)CC2)cc1)C(=O)N[C@@H](Cc1ccc(Cl)cc1)C(=O)N[C@H]1CSSC[C@@H](C(=O)N[C@H](C(=O)NCCN)C(C)(C)C)NC(=O)[C@H](CC(N)=O)NC(=O)C(C)(C)NC(=O)[C@H](CCCNC(=N)N)NC(=O)[C@H](CCCCN)NC1=O [PSM-0273] ({DOTA-4Amb}-[Aib][Phe(4-Cl)]CKR[Aib]NC[Tle]-Ethylenediamine; disulfide 3-8)
Kd: < 0.0126 µM

compound: CC(=O)N[C@@H](Cc1ccccc1)C(=O)N[C@H]1CSSC[C@@H](C(=O)N[C@@H](CC(C)C)C(=O)N[C@H](C(=O)N[C@@H](CC(=O)O)C(=O)NCCCOCCOCCOCCCNC(=O)CCC(=O)N[C@H](CCCCNC(=O)CN2CCN(CC(=O)O)CCN(CC(=O)O)CCN(CC(=O)O)CC2)C(N)=O)[C@@H](C)O)NC(=O)[C@H](CC(N)=O)NC(=O)[C@H](C)NC(=O)[C@H](CCCNC(=N)N)NC(=O)[C@H](CCCCN)NC1=O [PSM-0323] (Ac-FCKRANCLTD-{TtdsdLys(DOTA)NH2}; disulfide 2-7)
Kd: > 0.501 µM

compound: C[C@@H](O)[C@H](NC(=O)[C@@H](NC(=O)[C@@H]1CSSC[C@H](NC(=O)[C@H](Cc2ccc(Cl)cc2)NC(=O)C(C)(C)NC(=O)CN2CCN(CC(=O)O)CCN(CC(=O)O)CCN(CC(=O)O)CC2)C(=O)N[C@@H](CCCCN)C(=O)N[C@@H](CCCNC(=N)N)C(=O)NC(C)(C)C(=O)N[C@@H](CC(N)=O)C(=O)N1)C(C)(C)C)C(N)=O [PSM-0290] ({DOTA}-[Aib][Phe(4-Cl)]CKR[Aib]NC[Tle]T-NH2; disulfide 3-8)
Kd: > 0.501 µM

compound: CC(C)CC(=O)NC(C)(C)C(=O)N[C@@H](Cc1ccccc1)C(=O)N[C@H]1CSSC[C@@H](C(=O)N[C@H](C(=O)N[C@H](C(=O)N[C@H](CCCCNC(=O)CN2CCN(CC(=O)O)CCN(CC(=O)O)CCN(CC(=O)O)CC2)C(N)=O)[C@@H](C)O)C(C)(C)C)NC(=O)[C@H](CC(N)=O)NC(=O)C(C)(C)NC(=O)[C@H](CCCNC(=N)N)NC(=O)[C@H](CCCCN)NC1=O [PSM-0292] (Isovaleryl-[Aib]FCKR[Aib]NC[Tle]T[dK](DOTA)-NH2; disulfide 3-8)
Kd: 0.0126 to 0.126 µM

compound: C[C@@H](O)[C@H](NC(=O)[C@@H](NC(=O)[C@@H]1CSSC[C@H](NC(=O)[C@H](Cc2ccccc2)NC(=O)C(C)(C)NC(=O)c2ccc(CNC(=O)CN3CCN(CC(=O)O)CCN(CC(=O)O)CCN(CC(=O)O)CC3)cc2)C(=O)N[C@@H](CCCCN)C(=O)N[C@@H](CCCNC(=N)N)C(=O)NC(C)(C)C(=O)N[C@@H](CC(N)=O)C(=O)N1)C(C)(C)C)C(N)=O [PSM-0270] ({DOTA-4Amb}-[Aib]FCKR[Aib]NC[Tle]T-NH2; disulfide 3-8)
Kd: < 0.0126 µM

# context switch: different compound, same Kd
Request the reported Kd associated with CC(=O)N[C@H](C(=O)NC(C)(C)C(=O)N[C@@H](Cc1ccccc1)C(=O)N[C@H]1CSSC[C@@H](C(=O)N[C@H](C(=O)NCCCC(N)=O)C(C)(C)C)NC(=O)[C@H](CC(N)=O)NC(=O)C(C)(C)NC(=O)[C@H](CCCNC(=N)N)NC(=O)[C@H](CCCCN)NC1=O)[C@@H](C)O [PSM-0297] (Ac-T[Aib]FCKR[Aib]NC[Tle][GABA]-NH2; disulfide 4-9)
< 0.0126 µM

###

In this section, each of the compounds is paired with its reported Kd.
biological target: Fc-fusion protein of human PSMA (hPSMA-Fc) (Homo sapiens, UniProt Q04609); construct: purchased Acro Biosystems PSA-H5264; experiment: Surface plasmon resonance assay (Biacore T200, single cycle kinetic); format: binding; conditions: PSMA SPR assay, category; read-out: pKD CAT (converted)
Bridge positions count the residues as written; N and C are the ends. Square brackets hold non-standard residues; d marks the D form. Peptide text beside a SMILES is read from it. * marks the point of attachment. TtdsdLys(DOTA)NH2 = NC(=O)[C@@H](CCCCNC(=O)CN1CCN(CC(=O)O)CCN(CC(=O)O)CCN(CC(=O)O)CC1)NC(=O)CCC(=O)NCCCOCCOCCOCCCN*; Phe(4-Cl) = N[C@@H](Cc1ccc(Cl)cc1)C(=O)O; Tle = CC(C)(C)[C@H](N)C(=O)O; Nle = CCCC[C@H](N)C(=O)O; Aib = CC(C)(N)C(=O)O

Before answering, review these 2 worked examples.
compound: CC(=O)N[C@H](C(=O)NC(C)(C)C(=O)N[C@@H](Cc1ccc(Cl)cc1)C(=O)N[C@H]1CSSC[C@@H](C(=O)N[C@H](C(=O)N[C@H](C(N)=O)[C@@H](C)O)C(C)(C)C)NC(=O)[C@H](CC(C)C)NC(=O)C(C)(C)NC(=O)[C@H](CCCNC(=N)N)NC(=O)[C@H](CCCCN)NC1=O)[C@@H](C)O [PSM-0584] (Ac-T[Aib][Phe(4-Cl)]CKR[Aib]LC[Tle]T-NH2; disulfide 4-9)
target of assay: Fc-fusion protein of human PSMA (hPSMA-Fc) (Homo sapiens, UniProt Q04609)
Kd: < 12.6 nM
--
compound: CCCC[C@@H]1NC(=O)[C@@H](NC(=O)[C@H](Cc2ccc(Cl)cc2)NC(=O)C(C)(C)NC(=O)[C@@H](NC(C)=O)[C@@H](C)O)CSSC[C@@H](C(=O)N[C@H](C(=O)N[C@H](C(N)=O)[C@@H](C)O)C(C)(C)C)NC(=O)[C@H](CC(N)=O)NC(=O)C(C)(C)NC(=O)[C@H](CCCNC(=N)NC(C)=O)NC1=O [PSM-0570] (Ac-T[Aib][Phe(4-Cl)]C[Nle]R(Ac)[Aib]NC[Tle]T-NH2; disulfide 4-9)
target of assay: Fc-fusion protein of human PSMA (hPSMA-Fc) (Homo sapiens, UniProt Q04609)
Kd: 12.6 to 126 nM

# context switch: different compound, same Kd
Request the reported Kd associated with CC(=O)N[C@H]1CSSC[C@@H](C(=O)N[C@@H](CC(C)C)C(=O)N[C@H](C(=O)N[C@@H](CC(=O)O)C(=O)NCCCOCCOCCOCCCNC(=O)CCC(=O)N[C@H](CCCCNC(=O)CN2CCN(CC(=O)O)CCN(CC(=O)O)CCN(CC(=O)O)CC2)C(N)=O)[C@@H](C)O)NC(=O)[C@H](CC(N)=O)NC(=O)[C@H](C)NC(=O)[C@H](CCCNC(=N)N)NC(=O)[C@H](CCCCN)NC1=O [PSM-0591] (Ac-CKRANCLTD-{TtdsdLys(DOTA)NH2}; disulfide 1-6)
> 501 nM
